Reported IC50 values for a set of molecules
# ASSAY SYSTEM: adenosine A2a receptor (A2aR) (Homo sapiens, UniProt P29274)
# Construct: expressed in transfected cells; host or cells: CHO-K1
# Sequence (P29274 whole entry): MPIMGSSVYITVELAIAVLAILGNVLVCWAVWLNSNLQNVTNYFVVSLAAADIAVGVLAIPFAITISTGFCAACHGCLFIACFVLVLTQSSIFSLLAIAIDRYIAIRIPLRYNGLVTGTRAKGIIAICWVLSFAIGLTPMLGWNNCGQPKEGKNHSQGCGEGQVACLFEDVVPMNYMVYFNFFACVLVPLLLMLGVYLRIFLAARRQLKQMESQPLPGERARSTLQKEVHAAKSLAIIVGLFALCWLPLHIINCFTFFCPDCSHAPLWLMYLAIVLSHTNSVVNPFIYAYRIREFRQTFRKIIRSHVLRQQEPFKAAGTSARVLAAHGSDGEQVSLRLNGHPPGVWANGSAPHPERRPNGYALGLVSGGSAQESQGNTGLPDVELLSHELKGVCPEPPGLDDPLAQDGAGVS
# RUN DESCRIPTION: Inhibition of adenosine A2a receptor cAMP signaling pathway in CHO-K1/A2aR cells (HTRF cAMP dynamic 2 kit)
# Format: cell-based
# CONDITION SET: Table 1, 20 nM ethylcarbazole
Number in nM, nothing else.

Cc1ccc(-c2nc(N)nc3c(Cc4cccc(COS(N)(=O)=O)n4)cnn23)o1: 1.86
Cc1ccc(-c2nc(N)nc3c(Cc4ccccc4F)cnn23)o1: 0.14
Cc1ccc(-c2nc(N)nc3c(Oc4cccc(CO[C@H]5CCOC5)n4)cnn23)o1: 0.36
Nc1nc(-c2ccco2)n2ncc(Cc3cccc(F)c3)c2n1: 4.64
Cc1ccc(-c2nc(N)nc3c(Cc4cccc(CO)n4)cnn23)o1: 0.87

-- ask Please look up its IC50: Cc1ccc(-c2nc(N)nc3c(Cc4cccc(CN5CC6COCC6C5)n4)cnn23)o1 (stereo not drawn)
-- reply 1.64

-- ask Please look up its IC50: Cc1ccc(-c2nc(N)nc3c(Sc4cccc(CO[C@H]5CCOC5)n4)cnn23)o1
-- reply 2.13

-- ask Please look up its IC50: Cc1ccc(-c2nc(N)nc3c(Cc4cccc(CO[C@H]5CCN(C)C5)n4)cnn23)o1
-- reply 1.83

-- ask Please look up its IC50: Cc1ccc(-c2nc(N)nc3c(Cc4cccc(COCC5CC5)n4)cnn23)o1
-- reply 0.72
